biological target: PICK1, Q9NRD5; assay: holdup assay; design: key: below the threshold = too weak to quantify, mostly under pKd 3.1 to 4; conditions: plain residues with an end cap or a label only (N-terminal biotin on a linker: ado-ado)
Sequence (Q9NRD5 17-115): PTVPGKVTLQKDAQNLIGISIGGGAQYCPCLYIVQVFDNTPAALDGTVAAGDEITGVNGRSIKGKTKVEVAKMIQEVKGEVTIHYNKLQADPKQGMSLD
measured.endpoint: pKd
The response must contain the number and no unit.

The cases that follow already have their pKd on record.
| binder | pKd |
| --- | --- |
| GQEEQVTTRL [TRPC5, Q9UL62] | 4.06 |
| AKPSRISTVV [IQSEC2, Q5JU85] | 4.14 |
| RHGSCVETSL [TMEM151B, Q8IW70] | 4.18 |
| VRNLPESEEL [MYOZ3, Q8TDC0] | 4.05 |

Switching to the query record.
Data point: RRRESYSTTV [EVI5, O60447] ; pKd = 4.05
